Target: T1, extracellular domain of human CD73 protein (CD73-ECD), C-terminus polyhistidine-tagged (human, UniProt P21589 27-547)
T1 construct: also called Human CD73-ECD; human recombinant CD73 enzyme (CD73 extracellular domain)
T1 sequence: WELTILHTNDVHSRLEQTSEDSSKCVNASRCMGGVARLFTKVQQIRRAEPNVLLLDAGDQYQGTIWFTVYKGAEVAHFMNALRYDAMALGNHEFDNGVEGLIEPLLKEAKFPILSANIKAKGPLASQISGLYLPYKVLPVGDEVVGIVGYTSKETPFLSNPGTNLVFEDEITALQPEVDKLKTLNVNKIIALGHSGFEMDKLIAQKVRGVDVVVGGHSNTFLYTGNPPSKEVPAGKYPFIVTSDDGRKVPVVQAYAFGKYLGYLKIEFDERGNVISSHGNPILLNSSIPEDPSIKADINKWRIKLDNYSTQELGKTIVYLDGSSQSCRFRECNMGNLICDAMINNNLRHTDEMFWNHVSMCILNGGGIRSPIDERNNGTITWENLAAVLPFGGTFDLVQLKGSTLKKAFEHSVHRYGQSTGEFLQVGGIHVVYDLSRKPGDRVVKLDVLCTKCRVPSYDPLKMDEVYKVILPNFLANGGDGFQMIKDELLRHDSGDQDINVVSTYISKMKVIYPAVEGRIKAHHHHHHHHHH
Assay: ELISA, coated CD73-ECD

binder	binding result
Hu001c-25 (antibody, V domains shown, Humanized) VH: QVQLVQSGAEVKKPGASVKVSCKASGYTFTNYYIYWVRQAPGQRLEWIGWIYPGNLNIKYNEKFKGRVTITADKSASTAYMELSSLRSEDTAVYYCARDDNYAWFAYWGQGTLVTVSS VL: DIQMTQSPSSLSASVGDRVTITCKASQDVSTAVAWYQQKPGKSPKLLIYWTNTRHTGVPSRFSGSGSGTDHTLTISSLQPEDFATYYCQQHYSTPFTFGQGTKLEIK	binds
Hu002c-10 (antibody, V domains shown, Humanized) VH: QVQLVQSGAEVKKPGASVKVSCKASGYTLTSYWMHWVRQAPGQGLEWIGEINPSQGRSNYNEKFKSKVTLTVDRSTSTVYMELSSLRSEDTAVYYCARRGVSGNYFDYWGQGTLVTVSS VL: DIQMTQSPSSLSASVGDRVTITCKASQDINTYLSWFQQKPGKAPKSLIYRSNILVSGVPSRFSGSGSGQDYTLTISSLQPEDFATYYCLQYDEFPYTFGQGTKLEIK	binds
